Task for the reader: assign each of the following compounds its reported MIC.
Test system: Clostridioides difficile
TEST_SUMMARY: Antimicrobial activity against nonepidemic Clostridium difficile ATCC 9689 by broth dilution method
Type: functional
Hi! Could you send only the number? It should be in µg/mL, unit omitted.

// recorded MIC for CO/N=C(\C(=O)N[C@@H]1C(=O)N2C(C(=O)O)=C(CSc3nc(=O)c(O)nn3C)CS[C@H]12)c1csc(N)n1 : 32

// recorded MIC for C[C@H]1COc2c(N3CCN(C)CC3)c(F)cc3c(=O)c(C(=O)O)cn1c23.C[C@H]1COc2c(N3CCN(C)CC3)c(F)cc3c(=O)c(C(=O)O)cn1c23.O : 8

====

Task for the reader: assign each of the following compounds its reported MIC.
Test system: Clostridioides difficile
TEST_SUMMARY: Antimicrobial activity against fluoroquinolone-resistant epidemic Clostridium difficile NAP1 by broth dilution method
Format: functional
Hi! Could you send only the number? It should be in µg/mL, unit omitted.

// recorded MIC for CO/N=C(\C(=O)N[C@@H]1C(=O)N2C(C(=O)O)=C(CSc3nc(=O)c(O)nn3C)CS[C@H]12)c1csc(N)n1 [CEFTRIAXONE] : 16

// recorded MIC for CCC[C@@H]1C[C@@H](C(=O)N[C@@H]([C@H]2O[C@H](SC)[C@H](O)[C@@H](O)[C@H]2O)[C@H](C)Cl)N(C)C1 [CLINDAMYCIN] : 2

// recorded MIC for COc1c(N2CCNC(C)C2)c(F)cc2c(=O)c(C(=O)O)cn(C3CC3)c12 (centres undefined) [GATIFLOXACIN] : 256

====

TEST_SUMMARY: Drug level in Clostridium difficile infected CF1 mouse stool at 0.375 mg/day for 4 days
Type: ADME
PROTOCOL_CONDITIONS: read-out: Drug uptake
PARAMETER: concentration at 96 h (ng/g)
Hi! Could you send only the number? It should be in ng/g, unit omitted.

// recorded concentration at 96 h for C[C@H]1COc2c(N3CCN(C)CC3)c(F)cc3c(=O)c(C(=O)O)cn1c23.C[C@H]1COc2c(N3CCN(C)CC3)c(F)cc3c(=O)c(C(=O)O)cn1c23.O [LEVOFLOXACIN] : 58100

====

TEST_SUMMARY: Drug level in Clostridium difficile infected CF1 mouse stool at 0.2 mg/day for 4 days
Format: ADME
PROTOCOL_CONDITIONS: read-out: Drug uptake
PARAMETER: concentration at 96 h

// recorded concentration at 96 h for COc1c(N2CCNC(C)C2)c(F)cc2c(=O)c(C(=O)O)cn(C3CC3)c12 (stereo unspecified) : 76600 ng/g

====

Task for the reader: assign each of the following compounds its reported MIC.
Tested on: Clostridioides difficile
TEST_SUMMARY: Antimicrobial activity against nonepidemic Clostridium difficile J29 by broth dilution method
Format: functional
Hi! Could you send only the number? It should be in µg/mL, unit omitted.

// recorded MIC for CO/N=C(\C(=O)N[C@@H]1C(=O)N2C(C(=O)O)=C(CSc3nc(=O)c(O)nn3C)CS[C@H]12)c1csc(N)n1 [CEFTRIAXONE] : 64

// recorded MIC for C[C@H]1COc2c(N3CCN(C)CC3)c(F)cc3c(=O)c(C(=O)O)cn1c23.C[C@H]1COc2c(N3CCN(C)CC3)c(F)cc3c(=O)c(C(=O)O)cn1c23.O [LEVOFLOXACIN] : 256

// recorded MIC for COc1c(N2CCNC(C)C2)c(F)cc2c(=O)c(C(=O)O)cn(C3CC3)c12 (centres undefined) [GATIFLOXACIN] : 32
